# Tested on: MS2 coat protein
# TEST SUMMARY: apparent KD of MS2 coat protein; designed switch direction (-1 OFF switch, 1 ON switch): -1; higher = weaker reporter binding
# MEASUREMENT PARAMETERS: input ligand: FMN 200 uM
Each entry below carries its reported apparent KD of MS2 coat protein.
MEASURED ATTRIBUTE: apparent KD of MS2 coat protein (µM)

entry_sequence="AGUACUGACACGUUGGUGUUAGUACAAUAAGCUUGUGACACAUGAGGAUCACCCAUGUCCUCAUAAGCUCGUCUUAU [salish99_TOv2_r2_094] (Eterna round: R96, puzzle: Sensor v3, turn-off variant 2)" unit_tag=µM meas_value=0.0229
entry_sequence="UAUUUACAUGAGGAUCACCCAUGUCAGGAUAUGUUUCUAUCGUCGAAAGACGAUAGUUGCAGAAGGGACAAUAU [LRO-Excl01-25 mod derived from EliFisker 4.24] (Eterna round: R97, puzzle: Exclusion 1)" unit_tag=µM meas_value=0.0941

----------
# Tested on: MS2 coat protein
# TEST SUMMARY: apparent KD of MS2 coat protein, switch ON state; designed switch direction (-1 OFF switch, 1 ON switch): 1; higher = weaker reporter binding
# MEASUREMENT PARAMETERS: FMN input: 0 or 200 uM; Eterna round: R93 (includes R88 designs)
Known apparent KD of MS2 coat protein of a selection of sequences
MEASURED ATTRIBUTE: apparent KD of MS2 coat protein (nM)

entry_sequence="AAGAAACAUGAGGAUCACCCAUGUAGAAAUAUGGGAGGAUAUACAAGGACGUAAGUCAAGGUAGAAGGCCUAAGAA [Mat - Same State 1 - Meechl mod - D135]" meas_value=26
entry_sequence="AAGAAACAUGAGGAUCACCCAUGUGAGAAAAACACAGGAUAUGCAAAAGAAAGAAAGAAAGCAGAAGGGUGAAGAA [Mat - Same State 1 - Tesla mod - 52]" meas_value=22.5
entry_sequence="GGAGCCGGCACCGAGGAUAUUCAUAUUAAAACAUGAGGAUCACCCAUGUAGGCCAGAAGGCCUUGGGAGAAGGCGGAUCGGCUCG [Xeonanis]" meas_value=29.9
entry_sequence="GAAAAACAUGAGGAUCACCCAUGUGUAAACAAGGGAGGAUAUACAAAGACGUAAGUCAAAGUAGAAGGCCUAAAAG [Garnet 38]" meas_value=25.6
entry_sequence="AAAUAAAGGACUGAGGAUAUACCACAUGAAACAUGAGGAUCACCCAUGUUAAAAAACAGAGGGUGGUAGAAGGCAGUCCACAAAC [Same State 2.5e ( so lets mod hyphema)]" meas_value=17.9
entry_sequence="AGGAGACAUGAGGAUCACCCAUGUGAGAAGAGGCGAGGAUAUCGAAAGAAAGAAGAGAAACGAGAAGGCGCGAGGG [salish99-SS1-027]" meas_value=26.9
entry_sequence="GAGGACAUAGGAUAGGAUAUAUGAAUAAUUACAUGAGGAUCACCCAUGUCCAUUUAUAUGGGAACAUAGAAGGGUUGUAGUUAUC [SameState2 Malc#34]" meas_value=1070
entry_sequence="AAAACACAUGAGGAUCACCCAUGUGCCUAACUCGCAGGAUAUUUCUCGAUUAAAUGAUAGGAAGAAGGGUGAUAAA [Nob's Hobby 37 - Jieux - Same State 1]" meas_value=110
entry_sequence="CGGAGACAUGAGGAUCACCCAUGUGAGAAGAGGCGAGGAUAUCGAAAAAAAAAAAAAAAACGAGAAGGCGCGAGAU [salish99-SS1-013]" meas_value=34
entry_sequence="GCCUAACAUGAGGAUCACCCAUGUAGUGGGUUGUUAGGAUAUGGACCACAAAACGCGGUACCAGAAGGAAUAGAAA [Atbima]" meas_value=393
entry_sequence="AAAAGACAUGAGGAUCACCCAUGUGAAAACGUAGGAGGAUAUGUCGUGAAAAAAGACUUGGCAGAAGGCCUGUGUC [SS1 - 43]" meas_value=47
entry_sequence="AUGAAAGUAACACAGGAUAUCCAGGAUACAACAUGAGGAUCACCCAUGUACAUACGAACGUAUAAGGAGAAGGGUGGAUGAUCUUC [ss2-2]" meas_value=50.7

----------
# Test system: K4 kissing-loop RNA reporter
# TEST SUMMARY: apparent KD of K4 kissing-loop reporter; higher = weaker reporter binding
# MEASUREMENT PARAMETERS: Eterna round: R107; input ligand: theophylline 20 uM
Reported apparent KD of K4 kissing-loop reporter by item:
MEASURED ATTRIBUTE: apparent KD of K4 kissing-loop reporter (nM)

entry_sequence="AGGAGCUGUCGACAAAAGUCGACAUAAACCAAGGAUAUGACGAAAGUCAGAAGGUGGUCAUAAGACCAGUGAUGUUGGUAGCUCC [FmnA 10 #SwitchBubble #K4Late]" tgt="K4 kissing-loop RNA reporter" unit_tag=nM meas_value=488
entry_sequence="GCGCGGGAGUGAUGUUCCAAGUGGUGUUAGCGAGGACCGGUACGGCCGCCACUCGUUACGGCCGGGCCGUAGGAUACACUGGCGC [Same State - Tryptophan A (Freestyle 17)]" tgt="K4 kissing-loop RNA reporter" unit_tag=nM meas_value=290
entry_sequence="CUGGGUUGACGAAAAGUCAACAAAUGAGAAGGAGCGCACGAAAGUGCAGGUAGGUCGCUCAAUCCAGUGAUGUUGGGUCAUCCAG [#SwitchBubble 13 #K4Late]" tgt="K4 kissing-loop RNA reporter" unit_tag=nM meas_value=951
entry_sequence="AAACAUUGGUCUGAUACCAGCUGAUCGGAAACGAUCAUGCUGGAGUGAUGUUCCAGGAAAAGCCCUUGGCAGCAGACCGAUGAAA [MAT - Same State Theophlline B - Mod of Eli - D28]" tgt="K4 kissing-loop RNA reporter" unit_tag=nM meas_value=184
entry_sequence="ACGUAGUUCUAGGAUACCAGCCAAGAAGCCAGGACAAAAGUCCUGGCUGCCAGUGAUGUUGGCCCUUGGCAGCCUAGAACUACGA [Omei KL Theo B Exc B v10]" tgt="K4 kissing-loop RNA reporter" unit_tag=nM meas_value=109

----------
# Test system: K4 kissing-loop RNA reporter
# TEST SUMMARY: apparent KD of K4 kissing-loop reporter; higher = weaker reporter binding
# MEASUREMENT PARAMETERS: Eterna round: R107; input ligand: tryptophan 2.4 mM
MEASURED ATTRIBUTE: apparent KD of K4 kissing-loop reporter (nM)

entry_sequence="UUUAUUAAGACGGCCGCCACUGAAUUAGAGUGAUGUUCUAAAAUUUUUAAUUUUUUUUUUUUCAGCAGGACCGGGUCAAUUAUUA [JR_SSTryptoB_Sub012]" meas_value=94.5
entry_sequence="GGGAGUAGUGCGGCCGCCACUGAGAAAGAAGAAGAAUAUAGUGAUGUUAUGUAGGAAAGGAAGAACAGGACCGGGCAUUAGAUUU [SSTRyptB.G]" meas_value=270
entry_sequence="AAAUUUAUAUUAGAUACCAGCAAAUUGAAAGUUUAUUAUGACAAGAGUGAUGUUCUUGUAUGCCCUUGGCAGCUGGUAUGGGUUU [KL-XTheo-B26]" meas_value=108

----------
# Tested on: K4 kissing-loop RNA reporter;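 further: bound reporter read as fluorescence of individual clusters on recovered sequencing chips by microscopy, with normalized cluster intensities fitted with a binding model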
# TEST SUMMARY: apparent KD of K4 kissing-loop reporter; higher = weaker reporter binding
# MEASUREMENT PARAMETERS: Eterna round: R107; input ligand: theophylline 20 uM
Some sequences, each annotated with its measured apparent KD of K4 kissing-loop reporter.
MEASURED ATTRIBUTE: apparent KD of K4 kissing-loop reporter (nM)

entry_sequence="UGGACGAAUAUCGAUAAGAUAUUCUGGGAUACCAGUGACGAAAGUCACCCUUGGCAGCUCAACUGCCAGUGAUGUUGGUAGUCCA [Astros-Elo-mod#3]" measured_attribute="apparent KD of K4 kissing-loop reporter" meas_value=162
entry_sequence="CGUUUAGUGAUGUUAAGCGUCCACUACGAUACCAGAACUAUAACCUUCCCUUGGCAGCGUUUAUAUUGUAACUCAUGUGUUAAUU [theeternabot_exclusion_KL_Theo_A_11]" measured_attribute="apparent KD of K4 kissing-loop reporter" meas_value=503
entry_sequence="GGGAGAAGAGCGGCCGCCACUCAGACAGCAGCAGAAUAUAGUGAUGUUAUAUAGGAAAGGCGGAGGAGGACCGGGCUUAAGAGGG [#20 K4 Tryptophan B Same State]" measured_attribute="apparent KD of K4 kissing-loop reporter" meas_value=362
entry_sequence="GUGCGCGCGGCGGCCGCCACUCGCAUGAGAGUGAUGUUCUUGCCCGGGCCGCAAGGCCCGGGUGUGAGGACCGGGCCGGGCUGCG [#2 Same State - Tryptophan B Attempt #26 (HarryS)]" measured_attribute="apparent KD of K4 kissing-loop reporter" meas_value=0.148
entry_sequence="CAUACGCAUGGAGGAUAUGAGAUUACUCAUAUCAUUUAAUAUUCUCAGUGAUGUUGAGAUUUAGGCUCAGAAGGCCAUGUGUAUG [Ex FMN B 14]" measured_attribute="apparent KD of K4 kissing-loop reporter" meas_value=421

Where do these numbers come from? They come from the supplement of paper PMC9170038.
